Hello, the source for this data is patent USRE42072E1, in case you need it.

protocol: in vivo
Assay type: in vivo, sheep
experimental_conditions: female, sheep, in vivo, 40 ug, bioavailability
measured_property: bioavailability (%)
A number alone suffices; assume %.

Q: Consider the compound CCNC(=O)[C@@H]1CCCN1C(=O)[C@H](CCCNC(=N)N)NC(=O)[C@H](CC(C)C)NC(=O)[C@@H](CC(C)C)NC(=O)[C@H](Cc1ccc(O)cc1)NC(=O)[C@H](CO)NC(=O)[C@H](Cc1c[nH]c2ccccc12)NC(=O)[C@H](Cc1c[nH]cn1)NC(=O)[C@@H]1CCC(=O)N1 [leuprolide acetate] and give its measured bioavailability.
Result: 6
